# Assayed target: Growth factor receptor-bound protein 2 (Homo sapiens)
# Sequence (P62993 whole entry, the tested form may be a part): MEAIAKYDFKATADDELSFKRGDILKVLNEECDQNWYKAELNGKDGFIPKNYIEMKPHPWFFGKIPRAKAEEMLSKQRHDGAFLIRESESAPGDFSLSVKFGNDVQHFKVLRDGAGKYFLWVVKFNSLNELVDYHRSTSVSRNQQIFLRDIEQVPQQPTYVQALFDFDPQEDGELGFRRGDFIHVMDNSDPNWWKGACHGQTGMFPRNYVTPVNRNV
# Test summary: Inhibition of recombinant GRB2-SH2 domain
pIC50: −log10 of the molar value. Bridge positions count the residues as written; N and C are the ends. Square brackets hold non-standard residues; d marks the D form. Peptide text beside a SMILES is read from it. Tyr(3-OMe) = COc1cc(C[C@H](N)C(=O)O)ccc1O; Tyr(3-NH2) = Nc1cc(C[C@H](N)C(=O)O)ccc1O; Dopa = N[C@@H](Cc1ccc(O)c(O)c1)C(=O)O; Gla = N[C@@H](CC(C(=O)O)C(=O)O)C(=O)O; Aad = N[C@@H](CCCC(=O)O)C(=O)O; Ac6c = NC1(C(=O)O)CCCCC1; Ava = NCCCCC(=O)O; βAla = NCCC(=O)O
Mark not met for pIC50 values under 4, and met for everything at or above.

**Q:** Decide: pIC50 of CC(C)C[C@@H]1NC(=O)[C@H](CCCC(=O)O)NC(=O)CSC[C@@H](C(N)=O)NC(=O)CCCCNC(=O)[C@H](CC(N)=O)NC(=O)C2(CCCCC2)NC(=O)[C@H](Cc2ccc(O)c(O)c2)NC1=O ({CH2CO}-[Aad]L[Dopa][Ac6c]N[Ava]C-NH2; thioether N-7) >= 4?
**A:** not met

**Q:** Try the compound CC(C)C[C@@H]1NC(=O)[C@H](CC(C(=O)O)C(=O)O)NC(=O)C[S+]([O-])C[C@@H](C(N)=O)NC(=O)CCCCNC(=O)[C@H](CC(N)=O)NC(=O)C2(CCCCC2)NC(=O)[C@H](Cc2ccc(O)c(N)c2)NC1=O (stereo partly specified)
**A:** met

**Q:** Try the compound CC(C)C[C@@H]1NC(=O)[C@H](CC(C(=O)O)C(=O)O)NC(=O)CSC[C@@H](C(N)=O)NC(=O)CCNC(=O)[C@H](CC(N)=O)NC(=O)C2(CCCCC2)NC(=O)[C@H](Cc2ccc(O)c(N)c2)NC1=O ({CH2CO}-[Gla]L[Tyr(3-NH2)][Ac6c]N[βAla]C-NH2; thioether N-7)
**A:** met

**Q:** Try the compound CC(C)C[C@@H]1NC(=O)[C@H](CCCC(=O)O)NC(=O)CSC[C@@H](C(N)=O)NC(=O)CCCCNC(=O)[C@H](CC(N)=O)NC(=O)C2(CCCCC2)NC(=O)[C@H](Cc2ccc(O)c(N)c2)NC1=O ({CH2CO}-[Aad]L[Tyr(3-NH2)][Ac6c]N[Ava]C-NH2; thioether N-7)
**A:** met

**Q:** Try the compound COc1cc(C[C@@H]2NC(=O)[C@H](CC(C)C)NC(=O)[C@H](CCCC(=O)O)NC(=O)C[S+]([O-])C[C@H](C(N)=O)NC(=O)CCCCNC(=O)[C@H](CC(N)=O)NC(=O)C3(CCCCC3)NC2=O)ccc1O (stereo partly specified)
**A:** not met

**Q:** Try the compound CC(C)C[C@@H]1NC(=O)[C@H](CC(C(=O)O)C(=O)O)NC(=O)C[S+]([O-])C[C@@H](C(N)=O)NC(=O)[C@H](CC(N)=O)NC(=O)C2(CCCCC2)NC(=O)[C@H](Cc2ccc(O)c(N)c2)NC1=O (stereo partly specified)
**A:** met

**Q:** Try the compound CC(C)C[C@@H]1NC(=O)[C@H](CCCC(=O)O)NC(=O)C[S+]([O-])C[C@@H](C(N)=O)NC(=O)CCCCNC(=O)[C@H](CC(N)=O)NC(=O)C2(CCCCC2)NC(=O)[C@H](Cc2ccc(O)c(N)c2)NC1=O (stereo partly specified)
**A:** met

**Q:** Try the compound CC(C)C[C@@H]1NC(=O)[C@H](CCCC(=O)O)NC(=O)C[S+]([O-])C[C@@H](C(N)=O)NC(=O)CCCCNC(=O)[C@H](CC(N)=O)NC(=O)C2(CCCCC2)NC(=O)[C@H](Cc2ccc(O)c([N+](=O)[O-])c2)NC1=O (stereo partly specified)
**A:** met

**Q:** Try the compound CC(C)C[C@@H]1NC(=O)[C@H](CCCC(=O)O)NC(=O)C[S+]([O-])C[C@H](C(N)=O)NC(=O)CCCCNC(=O)[C@H](CC(N)=O)NC(=O)C2(CCCCC2)NC(=O)[C@H](Cc2ccc(O)c(C(=O)O)c2)NC1=O (stereo partly specified)
**A:** not met

**Q:** Try the compound CC(C)C[C@@H]1NC(=O)[C@H](CCCC(=O)O)NC(=O)C[S+]([O-])C[C@@H](C(N)=O)NC(=O)CCCCNC(=O)[C@H](CC(N)=O)NC(=O)C2(CCCCC2)NC(=O)[C@H](Cc2ccc(O)c(C(=O)O)c2)NC1=O (stereo partly specified)
**A:** met

**Q:** Try the compound COc1cc(C[C@@H]2NC(=O)[C@H](CC(C)C)NC(=O)[C@H](CCCC(=O)O)NC(=O)CSC[C@@H](C(N)=O)NC(=O)CCCCNC(=O)[C@H](CC(N)=O)NC(=O)C3(CCCCC3)NC2=O)ccc1O ({CH2CO}-[Aad]L[Tyr(3-OMe)][Ac6c]N[Ava]C-NH2; thioether N-7)
**A:** not met

**Q:** Try the compound CC(C)C[C@@H]1NC(=O)[C@H](CC(C(=O)O)C(=O)O)NC(=O)C[S+]([O-])C[C@@H](C(N)=O)NC(=O)CCNC(=O)[C@H](CC(N)=O)NC(=O)C2(CCCCC2)NC(=O)[C@H](Cc2ccc(O)c(N)c2)NC1=O (stereo partly specified)
**A:** met
